Task for the reader: assign each of the following molecules its reported Dmax.
Molecular target: UniProtKB P49137
Sequence (P49137 whole entry): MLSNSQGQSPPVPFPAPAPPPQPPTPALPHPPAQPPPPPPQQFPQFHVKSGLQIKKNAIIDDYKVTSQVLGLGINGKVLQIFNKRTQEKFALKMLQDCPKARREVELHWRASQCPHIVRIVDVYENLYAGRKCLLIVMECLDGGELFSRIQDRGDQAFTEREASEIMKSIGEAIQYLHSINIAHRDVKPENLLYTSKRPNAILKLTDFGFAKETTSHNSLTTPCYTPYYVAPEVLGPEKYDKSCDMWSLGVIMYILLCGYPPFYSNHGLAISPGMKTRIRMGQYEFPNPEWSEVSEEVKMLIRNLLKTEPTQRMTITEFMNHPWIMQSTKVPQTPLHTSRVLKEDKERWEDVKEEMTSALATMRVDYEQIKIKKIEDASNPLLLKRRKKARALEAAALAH
Assay: MK2 degradation in human THP-1 monocytic cells (MSD, 24 h)
Assay type: cell-based
Set-up: endogenous in cells
Conditions: THP-1, THP-1 cells
Description: MK2 Degradation in Human THP-1 Monoctyic Cells […] After 3 more washes, the secondary detection antibody (SULFO-Tag anti rabbit antibody R32AB-5) was added at a final concentration of 1 microgram per ml at 25 microlitres per well and shaken at room temperature for 1 hour at 600 rpm. After 3 more washes, the 1×MSD (diluted from 5× concentrate with water) reading buffer was added at 150 microlitres per well and read on the MSD instrument Meso Sector S 600. […]

Ask: Give Dmax for C[C@@H]1CNc2c(sc3ccc4nc(-c5ccc(N6CCN(CC7CN(c8ccc9c(c8)n(C)c(=O)n9C8CCC(=O)NC8=O)C7)CC6)cc5Cl)ccc4c23)C(=O)N1 (stereo partly drawn) [Compound I-235] tested on UniProtKB P49137.
Result: > 75%

Ask: Give Dmax for C[C@@H]1CNc2c(sc3ccc4nc(-c5ccc(N6CCC(CN7CCN(c8ccc9c(c8)n(C)c(=O)n9C8CCC(=O)NC8=O)CC7)CC6)cc5)ccc4c23)C(=O)N1 (stereo partly drawn) [Compound I-314] tested on UniProtKB P49137.
Result: > 75%

Ask: Give Dmax for Cc1nc(N2CCN(CCCc3ccc4c(c3)n(C)c(=O)n4C3CCC(=O)NC3=O)CC2)ccc1-c1ccc2c(ccc3sc4c(c32)NC[C@@H](C)NC4=O)n1 (stereo partly drawn) [Compound I-259] tested on UniProtKB P49137.
Result: < 50%

Ask: Give Dmax for C[C@@H]1CNc2c(sc3ccc4nc(-c5cccc(N6CCN(CCCCCCCCCCc7cccc8c7n(C)c(=O)n8C7CCC(=O)NC7=O)CC6)c5)ccc4c23)C(=O)N1 (stereo partly drawn) [Compound I-177] tested on UniProtKB P49137.
Result: > 75%

Ask: Give Dmax for C[C@@H]1Cc2oc(-c3ccnc(-c4ccc(N5CCN(CC6CCN(c7ccc8c(c7)n(C)c(=O)n8C7CCC(=O)NC7=O)CC6)CC5)cc4)c3)cc2C(=O)N1 (stereo partly drawn) [Compound I-208] tested on UniProtKB P49137.
Result: < 50%

Ask: Give Dmax for Cn1c(=O)n(C2CCC(=O)NC2=O)c2cccc(C3CCN(CC4CCN(c5ccc(F)c(-c6cc(-c7cc8c([nH]7)CCNC8=O)ccn6)c5)CC4)CC3)c21 (stereo not drawn) [Compound I-146] tested on UniProtKB P49137.
Result: < 50%

Ask: Give Dmax for C[C@@H]1CNc2c(sc3ccc4nc(-c5cccc(N6CCN(CC7CCN(c8ccc9c(c8)CN(C8CCC(=O)NC8=O)C9=O)CC7)CC6)c5)ccc4c23)C(=O)N1 (stereo partly drawn) [Compound I-303] tested on UniProtKB P49137.
Result: > 75%

Ask: Give Dmax for C[C@@H]1CNc2c(sc3ccc4nc(-c5cncc(C6CCN(CCCCCCCCc7cccc8c7n(C)c(=O)n8C7CCC(=O)NC7=O)CC6)c5)ccc4c23)C(=O)N1 (stereo partly drawn) [Compound I-103] tested on UniProtKB P49137.
Result: > 75%

Ask: Give Dmax for Cn1c(=O)n(C2CCC(=O)NC2=O)c2cccc(CCCCCCCCN3CCC4(CC3)CNC(=O)c3c4[nH]c4c3CCc3cnc(-c5ccccc5F)cc3-4)c21 (stereo not drawn) [Compound I-309] tested on UniProtKB P49137.
Result: < 50%
